System: U937 cells
procedure-text: MTT antiproliferative assay, U937
condition-label: Homo sapiens, U-937, 48 h, read-out: U937 IC50
pIC50: −log10 of the molar value.
pIC50 reference
observed-property: pIC50

>>> print(df.to_string())
                                smiles_data  assayed_system  observed_property  data_value
0  CCCCn1cc(CCCC(=O)Nc2ccc(C(=O)NO)cc2)c2ccccc21      U937 cells              pIC50        6.00
1  O=C(CCCc1cn(Cc2c(F)cccc2F)c2ccccc12)Nc1ccc(C(=O)NO)cc1      U937 cells              pIC50        6.20
2  CCn1cc(CCCC(=O)Nc2ccc(C(=O)NO)cc2)c2ccccc21      U937 cells              pIC50        6.03
3  O=C(CCCc1cn(Cc2cccc(Cl)c2)c2ccccc12)Nc1ccc(C(=O)NO)cc1      U937 cells              pIC50        6.00
4  O=C(CCCc1cn(Cc2ccccc2C(F)(F)F)c2ccccc12)Nc1ccc(C(=O)NO)cc1      U937 cells              pIC50        5.35

====

Test system: H1299 cells
procedure-text: MTT antiproliferative assay, H1299
Format: cell-based
condition-label: Homo sapiens, NCI-H1299, lung cancer
observed-property: IC50 (µM)

>>> print(df.to_string())
                                   compound  assayed_system  unit_of_measurement  data_value
0  Cn1cc(CCCC(=O)Nc2ccc(C(=O)NO)cc2)c2ccccc21 [Compound I13]     H1299 cells                   µM        7.67

====

assayed-system: HDAC8 (Homo sapiens)
Sequence (Q9BY41 whole entry): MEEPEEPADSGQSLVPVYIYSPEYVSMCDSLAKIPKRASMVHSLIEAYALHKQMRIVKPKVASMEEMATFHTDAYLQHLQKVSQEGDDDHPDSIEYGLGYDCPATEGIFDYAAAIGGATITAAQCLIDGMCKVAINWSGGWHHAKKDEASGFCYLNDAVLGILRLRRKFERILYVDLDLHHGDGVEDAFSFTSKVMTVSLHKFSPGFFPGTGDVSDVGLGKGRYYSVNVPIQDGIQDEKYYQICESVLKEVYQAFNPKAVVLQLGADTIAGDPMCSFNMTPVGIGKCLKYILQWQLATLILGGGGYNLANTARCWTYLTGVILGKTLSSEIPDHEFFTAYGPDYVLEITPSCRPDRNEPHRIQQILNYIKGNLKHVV
procedure-text: In vitro HDACs inhibitory assay, recombinant HDAC8
pIC50: −log10 of the molar value.
observed-property: pIC50

>>> print(df.to_string())
                                   compound        assayed_system  data_value
0  Cn1cc(CCCC(=O)Nc2ccc(C(=O)NO)cc2)c2ccccc21 [Compound I13]  HDAC8 (Homo sapiens)        6.55

====

Test system: MDA-MB-468 cells
procedure-text: MTT antiproliferative assay, MDA-MB-468
Assay type: cell-based
condition-label: Homo sapiens, breast carcinoma
observed-property: IC50 (nM)

>>> print(df.to_string())
                                smiles_data  data_value
0  Cn1cc(CCCC(=O)Nc2ccc(C(=O)NO)cc2)c2ccccc21        1340

====

assayed-system: HDAC1 (Homo sapiens)
Sequence (Q13547 whole entry): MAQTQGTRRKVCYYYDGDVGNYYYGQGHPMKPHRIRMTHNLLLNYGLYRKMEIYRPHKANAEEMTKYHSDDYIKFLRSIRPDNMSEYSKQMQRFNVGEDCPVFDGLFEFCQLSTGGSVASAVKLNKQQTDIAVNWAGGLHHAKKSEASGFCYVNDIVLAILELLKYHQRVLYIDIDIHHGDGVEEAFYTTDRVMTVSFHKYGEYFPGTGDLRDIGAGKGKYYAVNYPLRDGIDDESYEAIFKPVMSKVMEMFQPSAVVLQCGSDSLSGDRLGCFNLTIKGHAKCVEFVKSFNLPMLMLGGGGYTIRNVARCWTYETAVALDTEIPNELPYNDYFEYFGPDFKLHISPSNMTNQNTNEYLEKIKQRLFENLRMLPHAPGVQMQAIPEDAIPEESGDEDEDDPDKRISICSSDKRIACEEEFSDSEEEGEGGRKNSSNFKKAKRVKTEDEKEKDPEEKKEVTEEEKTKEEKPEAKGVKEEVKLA
procedure-text: In vitro HDACs inhibitory assay, recombinant HDAC1
observed-property: IC50

>>> print(df.to_string())
                                smiles_data  data_value
0  Cn1cc(CCCC(=O)Nc2ccc(C(=O)NO)cc2)c2ccccc21   0.0139 µM

====

assayed-system: UniProtKB O15379
Sequence (O15379 whole entry): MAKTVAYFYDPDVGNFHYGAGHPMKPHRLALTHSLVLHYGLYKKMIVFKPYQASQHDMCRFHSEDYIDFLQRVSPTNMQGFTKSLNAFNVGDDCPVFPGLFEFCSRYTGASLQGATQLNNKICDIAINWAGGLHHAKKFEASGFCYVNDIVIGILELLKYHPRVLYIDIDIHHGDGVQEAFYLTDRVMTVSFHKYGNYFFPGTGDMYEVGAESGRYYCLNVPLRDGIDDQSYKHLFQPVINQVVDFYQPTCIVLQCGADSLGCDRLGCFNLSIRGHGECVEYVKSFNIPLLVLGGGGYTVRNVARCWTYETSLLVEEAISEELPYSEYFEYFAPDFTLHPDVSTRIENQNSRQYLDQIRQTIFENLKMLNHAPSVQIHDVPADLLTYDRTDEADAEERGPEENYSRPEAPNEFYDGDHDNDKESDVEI
Sequence (Q9Y618 395-489 partner limits assumed): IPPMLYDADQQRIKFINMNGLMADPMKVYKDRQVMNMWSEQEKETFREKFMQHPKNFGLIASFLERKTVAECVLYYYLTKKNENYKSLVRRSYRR
procedure-text: In vitro HDACs inhibitory assay, recombinant HDAC3
observed-property: IC50 (µM)

>>> print(df.to_string())
                                smiles_data  data_value
0  Cn1cc(CCCC(=O)Nc2ccc(C(=O)NO)cc2)c2ccccc21      0.0121
